- study.system: T1, (D31)2/29 scFv
- T1 construct: also called pathogenic PV mAb
- assay.info: ELISA inhibition, monoclonal peptide phage preincubated with PV scFv, Dsg plate (Dsg3 by paragraph 281)
- Procedure: For ELISA inhibition assays, anti-idiotypic reagents were pre-incubated with PV mAbs for one hour at 37° C. prior to incubation on Dsg3 or Dsg1 ELISA plates (Rhigene/MBL), which were otherwise processed according to manufacturer's instructions. […] PV scFv binding, detected with HRP-conjugated anti-HA secondary antibody (Roche), was titrated to a final OD450 reading of 0.4-1.0, which was within the linear range of detection. […]
Where no end group is shown, it is not given here.
quantity: percent inhibition (%)

binder	measured.number
DLNYFTLSSKRE (peptide, not shown: large carriers, also: displayed on phage, fused to pIII coat protein, linker not given here, Control phage clone; tested as phage particle; also called control phage) [control peptide phage displaying a non-consensus sequence]	15
TTLTLRH (peptide, not shown: large carriers, also: displayed on phage, fused to pIII, Monoclonal phage clone; tested as phage particle) [P14 peptide phage]	16
ANKTSPFLMWRL (peptide, not shown: large carriers, also: displayed on phage, fused to pIII, Monoclonal phage clone from round 3 of screening with (D31)2/29 IgG; tested as phage particle) [P4 peptide phage]	78
YSNKTPHLQWRL (peptide, not shown: large carriers, also: displayed on phage, fused to pIII coat protein, linker not given here, Monoclonal phage clone; tested as phage particle) [P7 peptide phage]	83
